Tested on: DMS-114
assay-comment: NCI tumour cell line growth inhibition, 48 h
Counter-ions that a name gives are not always drawn. Calls of active or inactive are those of the source. Cut-off read from the data, not from the text of the source: active = GI50 up to about 1.1 µM and inactive = higher.
Possible outcomes: True for active, False for inactive

- compound: "O=C1OC(CC(=O)c2ccc(F)cc2)C(Cl)=C1Cl (stereo unspecified)"
  cat: "False"
- compound: "CCC1=CC2CN3CCc4c([nH]c5ccccc45)C(C(=O)OC)(C2)C13 (stereo unspecified)"
  cat: "False"
- compound: "CCOC1c2cc(OC)c(OC)cc2-c2ccc3ccccc3c2N1C (stereo unspecified)"
  cat: "False"
- compound: "Nc1ncnc2c(C3OC(CO)C(O)C3O)n[nH]c12 (stereo unspecified)"
  cat: "True"
- compound: "CC1=CC(=O)N(c2c(C)cccc2Cl)C(C)N1 (stereo unspecified)"
  cat: "False"
- compound: "Cn1c(=O)c2/c(n(C)c1=O)=N\\C=c1\\c(=O)n(C)c(=O)n(C)\\c1=N\\C=2"
  cat: "False"
- compound: "CC[C@@]1(O)C(=O)OCc2c1cc1n(c2=O)Cc2cc3c(CN(C)C)c(O)ccc3nc2-1 [TOPOTECAN HYDROCHLORIDE]"
  cat: "True"
- compound: "CC1(C)OCN(c2ccc(S(N)(=O)=O)cc2)Cn2c1nc1ccccc12"
  cat: "False"
- compound: "O=C(CCc1nnc(S)[nH]1)Nc1cc(Cl)c(Cl)cc1Cl"
  cat: "False"
- compound: "NC(=O)c1ncn(Cc2ccccc2)c1CNC(N)=S"
  cat: "False"
- compound: "O=C(c1ccccc1)c1c(CC(O)c2ccncc2)n(C(=O)c2ccccc2)c2ccccc12 (stereo unspecified)"
  cat: "False"
- compound: "Cc1ccc([N+](=O)[O-])cc1NC(=O)C(=O)Cc1nc2ccc(C(=O)c3ccccc3)cc2nc1O"
  cat: "False"
- compound: "Cc1cccc(C)c1NC(=O)/C(Cl)=C(/Cl)C(=O)O"
  cat: "False"
- compound: "Cc1ccc(C)c(NC(=O)/C(=N\\NC(N)=S)C(C#N)c2ccccc2)c1 (stereo unspecified)"
  cat: "False"
- compound: "CCCCN(CCCC)C(=O)C(=O)C(C(=O)c1ccc(OC)cc1)c1ccc(OC)cc1 (stereo unspecified)"
  cat: "False"
- compound: "CN1CCCS/C1=C1/SC(=S)N(c2ccccc2)C1=O"
  cat: "False"
- compound: "COc1cccc2c1C(=O)c1c(O)c3c(c(O)c1C2=O)C[C@@](O)(C(=O)CO)CC3OC1CC(NCCCC(OC(C)=O)OC(C)=O)C(O)C(C)O1 (stereo partly specified)"
  cat: "True"
- compound: "COc1ccc(CNc2nc3c(NC(C)=O)cc(C(F)(F)F)cc3nc2-c2ccccc2)cc1OC"
  cat: "False"
- compound: "N=C(NC(=N)Nc1ccc(S(=O)(=O)Nc2cnc3ccccc3n2)cc1)Nc1ccc(Br)cc1"
  cat: "False"
- compound: "COc1ccc2c(=O)oc3c(OC)cc(CCN(C)C)c4c(=O)oc1c2c34"
  cat: "False"
- compound: "O=C(CC(C(=O)c1ccsc1)c1cccs1)c1cccs1 (stereo unspecified)"
  cat: "False"

====

Tested on: NCI-H23
assay-comment: NCI tumour cell line growth inhibition, 48 h
Activity calls are given as the source filed them. Cut-off read from the data, not from the text of the source: active = GI50 up to about 1.1 µM and inactive = higher.
Form field: GI50 (one value per entry).
measurement-kind: GI50

- molecule: "CN(C(=O)c1ccc(Cl)cc1)C(=S)N1CCN(c2ccccn2)CC1"
  val: "> 100 µM (inactive)"
- molecule: "O=C(CCc1nnc(S)[nH]1)Nc1cc(Cl)c(Cl)cc1Cl"
  val: "> 100 µM (inactive)"
- molecule: "C=CC(=O)N1C/C(=C\\c2ccc(Cl)c(Cl)c2)C(=O)/C(=C/c2ccc(Cl)c(Cl)c2)C1"
  val: "0.2 µM (active)"
- molecule: "CC(=O)/C(=C/c1ccccc1F)C(=O)c1ccccc1"
  val: "32 µM (inactive)"
- molecule: "COc1cccc(NC(=O)C(=O)C2C=CCS2(=O)=O)c1 (configuration not stated)"
  val: "> 100 µM (inactive)"
- molecule: "CCCCN(CCCC)CC(C(=O)Nc1ccc([N+](=O)[O-])cc1[N+](=O)[O-])/C(C)=N\\NC(=O)c1ccncc1 (configuration not stated)"
  val: "> 100 µM (inactive)"
- molecule: "Cc1cc(C)c2c(=O)n(CC(O)CN3CCN(c4ncccn4)CC3)sc2n1 (configuration not stated)"
  val: "17.7 µM (inactive)"
- molecule: "Cc1nn(C(=O)Cc2ccccc2)c2c1C(c1ccccc1O)SC(=N)N2 (configuration not stated)"
  val: "> 100 µM (inactive)"
- molecule: "O=C(O)C1CSC2(CCCN(Cc3ccccc3)C2)N1 (configuration not stated)"
  val: "> 100 µM (inactive)"
- molecule: "CSC(=S)NNC(=O)c1ccncc1"
  val: "16.1 µM (inactive)"
- molecule: "C=CCN1C(=O)NC(=O)/C(=C/c2c3ccccc3cc3ccccc23)C1=O"
  val: "> 10 µM (inactive)"
- molecule: "CCOC(=O)C1CCCc2sc(N)c(C#N)c21 (configuration not stated)"
  val: "> 100 µM (inactive)"
- molecule: "COc1ccc(-c2sc(Br)c3c2C(=O)C2OC(=O)NC32)cc1OC (configuration not stated)"
  val: "> 100 µM (inactive)"
- molecule: "O=C(CCC(=O)Nc1ccc(Cl)c(Cl)c1)CC(=O)c1ccc2ccccc2c1"
  val: "> 100 µM (inactive)"
- molecule: "CCc1n[nH]c(=O)n1N"
  val: "> 100 µM (inactive)"
- molecule: "COc1ccc2[nH]c3c(C)c4c(c(C)c3c2c1)CN(C)C=C4"
  val: "0.424 µM (active)"
- molecule: "CN1CCN(C(=S)N(C(=O)c2ccco2)C2CCCCC2)CC1"
  val: "> 100 µM (inactive)"
- molecule: "Cn1cc2ccccc2c1-c1nc(F)nc(Nc2ccc(N)cc2)n1"
  val: "15.8 µM (inactive)"
- molecule: "CN(C)c1nc(NN)c2c(-c3ccccc3)c(-c3ccccc3)oc2n1"
  val: "> 100 µM (inactive)"
- molecule: "COC(=O)C1(NC(=O)C(Cc2ccccc2)N(C(=O)OC(C)(C)C)C(=O)OC(C)(C)C)CCCC1 (configuration not stated)"
  val: "30.5 µM (inactive)"
- molecule: "COc1ccc(-c2c(N)[n+]([O-])c3ccccc3[n+]2[O-])cc1OC"
  val: "> 100 µM (inactive)"
- molecule: "CC1=C(C(=O)NCC(C)O)CC(C(=O)NCC(C)O)=C(C)N1 (configuration not stated)"
  val: "> 100 µM (inactive)"

The origin of these recorded values is ChEMBL document CHEMBL1201862.
